assay_name: in vitro
Type: in vitro ADME
condition_set: human, Caco-2
measured_property: efflux ratio at 90 min

Solved entries:
CCC(=O)OC[C@H]1O[C@@](C#N)(c2ccc3c(NC(=O)[C@@H](N)C(C)C)ncnn23)[C@H](O)[C@@H]1O    47
CC(C)[C@H](N)C(=O)OC[C@H]1O[C@@](C#N)(c2ccc3c(N)ncnn23)[C@H](O)[C@@H]1O    0.4
CCCCCOC(=O)Nc1ncnn2c([C@]3(C#N)O[C@H](COC(=O)[C@@H](N)C(C)C)[C@@H](O)[C@H]3O)ccc12    35

(Q) Given the entry CC(C)(C)C(=O)OCO[C@H]1[C@@H](O)[C@](C#N)(c2ccc3c(N)ncnn23)O[C@@H]1COC(=O)CC1CCCCC1 , report its measured efflux ratio at 90 min.
(A) 0.8

(Q) // query: CCC(=O)Nc1nc(NC)c2ncn([C@@H]3O[C@H](COC(C)=O)[C@@H](OC(=O)CC)[C@@]3(C)F)c2n1
(A) 2.1

(Q) // query: CCCC(=O)Nc1ncnn2c([C@]3(C#N)O[C@H](COC(=O)CC4CCCCC4)[C@@H](OC(=O)[C@@H](N)C(C)C)[C@H]3O)ccc12
(A) 4.3

* * *

assay_name: in vitro
Format: in vitro ADME
condition_set: human, Caco-2
Recorded Papp B→A at 90 min determines the label; the label ranges are interval 1 (below 2 ×10⁻⁶ cm/s), interval 2 (2 ×10⁻⁶ cm/s to below 6 ×10⁻⁶ cm/s), interval 3 (6 ×10⁻⁶ cm/s or more)

The following compounds have reported results that may help.
CCCCCOC(=O)Nc1ncnn2c([C@]3(C#N)O[C@H](COC(=O)CC4CCCCC4)[C@@H](O)[C@H]3O)ccc12    interval 1
CC(C)(C)[C@H](N)C(=O)OC[C@H]1O[C@@](C#N)(c2ccc3c(N)ncnn23)[C@H](O)[C@@H]1OC(=O)CC1CCCCC1    interval 3
CCC(=O)O[C@H]1[C@@H](O)[C@](C#N)(c2ccc3c(NC(=O)C(C)C)ncnn23)O[C@@H]1COC(=O)[C@@H](N)C(C)C    interval 3
CC(C)[C@H](N)C(=O)OC[C@H]1O[C@@](C#N)(c2ccc3c(NC(=O)c4ccccc4)ncnn23)[C@H](O)[C@@H]1O    interval 3
CCCCC(=O)Nc1ncnn2c([C@]3(C#N)O[C@H](COC(=O)CC4CCCCC4)[C@@H](O)[C@H]3O)ccc12    interval 1
CCCCC(=O)Nc1ncnn2c([C@]3(C#N)O[C@H](COC(=O)CC(C)C)[C@@H](O)[C@H]3O)ccc12    interval 1
CC(C)[C@H](N)C(=O)O[C@H]1[C@@H](OC(=O)[C@@H](N)C(C)C)[C@](C#N)(c2ccc3c(N)ncnn23)O[C@@H]1COC(=O)CC1CCCCC1    interval 2
CC(C)C(=O)OC[C@H]1O[C@@](C#N)(c2ccc3c(N)ncnn23)[C@H](O)[C@@H]1OC(=O)C(C)C    interval 2

(Q) Which Papp B→A at 90 min band matches N#C[C@@]1(c2ccc3c(N)ncnn23)O[C@H](COP(=O)(O)OCCCCCCCCCCCCCCCC(=O)O)[C@@H](O)[C@H]1O ?
(A) interval 1

(Q) // query: CC(=O)OCOC(=O)OC[C@H]1O[C@@](C#N)(c2ccc3c(NC(=O)[C@@H](N)Cc4ccc(F)cc4)ncnn23)[C@H](O)[C@@H]1O
(A) interval 1

(Q) // query: CCCCCOC(=O)Nc1ncnn2c([C@]3(C#N)O[C@H](COC(=O)CC(C)C)[C@@H](O)[C@H]3O)ccc12
(A) interval 1

(Q) // query: CCCCCOC(=O)Nc1ncnn2c([C@]3(C#N)O[C@H](COC(=O)C(C)C)[C@@H](O)[C@H]3O)ccc12
(A) interval 2

(Q) // query: CC(C)C(=O)OC[C@H]1O[C@@](C#N)(c2ccc3c(N)ncnn23)[C@H](O)[C@@H]1O
(A) interval 2

* * *

assay_name: in vitro
Type: in vitro ADME
condition_set: human, Caco-2
Papp B→A at 90 min by entry:
Express the result in ×10⁻⁶ cm/s but write the number alone.

Solved entries:
CC(=O)OC[C@H]1O[C@@](C#N)(c2ccc3c(N)ncnn23)[C@H](O)[C@@H]1OC(=O)CC(C)C    2.7
CNc1nc(N)nc2c1ncn2[C@@H]1O[C@H](COC(=O)CC2CCCCC2)[C@@H](OC(C)=O)[C@@]1(C)F    1.6
CC(C)CC(=O)OC[C@H]1O[C@@](C#N)(c2ccc3c(NC(=O)[C@@H](N)C(C)C)ncnn23)[C@H](O)[C@@H]1O    3.3
CC(C)CC(=O)OC[C@H]1O[C@@](C#N)(c2ccc3c(N)ncnn23)[C@H](O)[C@@H]1OCOC(=O)C(C)(C)C    3.6

(Q) Given the entry CC(C)[C@H](N)C(=O)Nc1ncnn2c([C@]3(C#N)O[C@H](COC(=O)CC4CCCCC4)[C@@H](O)[C@H]3O)ccc12 , report its measured Papp B→A at 90 min.
(A) 6.1

(Q) // query: CCCCCOC(=O)Nc1ncnn2c([C@]3(C#N)O[C@H](COC(C)=O)[C@@H](O)[C@H]3O)ccc12
(A) 14

(Q) // query: CCCCCCCCCCCCCCCCCCOCCOP(=O)(O)OC[C@H]1O[C@@H](n2cnc3c(NC)nc(N)nc32)[C@](C)(F)[C@@H]1O
(A) 1.7

(Q) // query: CC1(C)CCC(CC(=O)OC[C@H]2O[C@@](C#N)(c3ccc4c(N)ncnn34)[C@H](O)[C@@H]2O)CC1
(A) 0.64

(Q) // query: CC(C)(C)C(=O)OCOC(=O)Nc1ncnn2c([C@]3(C#N)O[C@H](COC(=O)CC4(N)CCCCC4)[C@@H](O)[C@H]3O)ccc12
(A) 1.6

(Q) // query: N#C[C@@]1(c2ccc3c(N)ncnn23)O[C@H](COC(=O)CC2CCC3(CCCC3)CC2)[C@@H](O)[C@H]1O
(A) 0.9

(Q) // query: CNc1nc(N)nc2c1ncn2[C@@H]1O[C@H](COC(=O)C(C)C)[C@@H](O)[C@@]1(C)F
(A) 3.5

* * *

Papp A→B at 90 min by entry:
assay_name: in vitro
Format: in vitro ADME
condition_set: human, Caco-2
Report as: number unit

Solved entries:
CC(C)[C@H](N)C(=O)O[C@H]1[C@@H](O)[C@](C#N)(c2ccc3c(NC(=O)OCOC(=O)C(C)(C)C)ncnn23)O[C@@H]1COC(=O)CC1CCCCC1    1.5 nm/s
CC(C)C(=O)OC[C@H]1O[C@@](C#N)(c2ccc3c(N)ncnn23)[C@H](O)[C@@H]1OC(=O)CC1CCCCC1    41 nm/s
CC(=O)OC[C@H]1O[C@@](C#N)(c2ccc3c(NC(=O)c4ccccc4)ncnn23)[C@H](O)[C@@H]1O    15 nm/s

(Q) Given the entry CCCC(=O)Nc1ncnn2c([C@]3(C#N)O[C@H](COC(=O)CC4CCCCC4)[C@@H](OCOC(=O)C(C)(C)C)[C@H]3O)ccc12 , report its measured Papp A→B at 90 min.
(A) 4.6 nm/s

(Q) // query: N#C[C@@]1(c2ccc3c(NC(=O)c4ccccc4)ncnn23)O[C@H](COC(=O)CC2CCCCC2)[C@@H](O)[C@H]1O
(A) 11 nm/s

(Q) // query: CC(C)CC(=O)OC[C@H]1O[C@@](C#N)(c2ccc3c(N)ncnn23)[C@H](O)[C@@H]1O
(A) 30 nm/s

(Q) // query: CNc1nc(N)nc2c1ncn2[C@@H]1O[C@H](COC(C)=O)[C@@H](OC(=O)CC(C)C)[C@@]1(C)F
(A) 190 nm/s

(Q) // query: N#C[C@@]1(c2ccc3c(N)ncnn23)O[C@H](COC(=O)C[C@H]2CC[C@H](N)CC2)[C@@H](O)[C@H]1O
(A) 1.9 nm/s

(Q) // query: CCCCC(=O)Nc1ncnn2c([C@]3(C#N)O[C@H](COC(C)=O)[C@@H](O)[C@H]3O)ccc12
(A) 9.1 nm/s

(Q) // query: N#C[C@@]1(c2ccc3c(N)ncnn23)O[C@H](COC(=O)CC2CCC(F)(F)CC2)[C@@H](O)[C@H]1O
(A) 9.1 nm/s

* * *

Papp B→A at 90 min by entry:
assay_name: in vitro
Assay type: in vitro ADME
condition_set: human; Caco-2 monolayer, basolateral to apical, 90-minute incubation; read-out: Papp, B-A
Express the result in ×10⁻⁶ cm/s but write the number alone.

(Q) Given the entry CC(C)C(=O)Nc1ncnn2c([C@]3(C#N)O[C@H](COC(=O)Cc4ccccc4)[C@@H](OC(=O)[C@@H](N)C(C)(C)C)[C@H]3O)ccc12 , report its measured Papp B→A at 90 min.
(A) 15.3

* * *

assay_name: in vitro
Assay type: in vitro ADME
condition_set: human, Caco-2
efflux ratio at 90 min by entry:
Provide a numeric answer; units are not to be included.

CC(C)C(=O)Nc1ncnn2c([C@]3(C#N)O[C@H](COC(=O)CC4CCCCC4)[C@@H](OC(=O)[C@@H](N)C(C)C)[C@H]3O)ccc12    5.6
CC(=O)OCOC(=O)Nc1ncnn2c([C@]3(C#N)O[C@H](COC(=O)CC4(N)CCCCC4)[C@@H](O)[C@H]3O)ccc12    0.33
CCC(=O)OC[C@H]1O[C@@](C#N)(c2ccc3c(N)ncnn23)[C@H](O)[C@@H]1OC(=O)CC1CCCCC1    0.13
CC(=O)OC[C@H]1O[C@@](C#N)(c2ccc3c(N)ncnn23)[C@H](O)[C@@H]1OC(=O)C(C)C    0.94

(Q) Given the entry CCCCCOC(=O)Nc1ncnn2c([C@]3(C#N)O[C@H](COC(=O)C(C)C)[C@@H](O)[C@H]3O)ccc12 , report its measured efflux ratio at 90 min.
(A) 1.7

(Q) // query: N#C[C@@]1(c2ccc3c(N)ncnn23)O[C@H](COC(=O)CC2CCCC2)[C@@H](O)[C@H]1O
(A) 0.3

(Q) // query: CCC(=O)O[C@@H]1[C@@H](COC(C)=O)O[C@@H](n2cnc3c(NC)nc(N)nc32)[C@]1(C)F
(A) 1.1
